# Tested on: CCRF-CEM leukemia
# protocol-description: NCI tumour cell line growth inhibition, 48 h
readout: TGI

Record excerpt, results attached:
compound	readout	measured
c1ccc2c(c1)ncn2C1CCCCO1 (configuration not stated)	TGI	> 100 µM
CC1(C)Cc2cc(C(=O)O)c3c(c2C1=O)COCC3	TGI	> 100 µM
O=C(/C=C/c1ccc(/C=C/C(=O)c2ccc(O)cc2)cc1)c1ccc(O)cc1	TGI	> 100 µM
COc1cc(OC)c(/C=C/c2cnc3ccccc3n2)c(OC)c1	TGI	> 10 µM
CCN(C(=O)c1cc(F)ccc1Oc1cncnc1N1CC2(CCN(CC3CCC(NS(=O)(=O)CC)CC3)CC2)C1)C(C)C (configuration not stated)	TGI	> 100 µM
O=S(=O)(O)ON=C1c2ccccc2-c2ccccc21	TGI	> 100 µM

*Q* For the compound C1=CC=C2NCCCNC3=CC=CC=CC3=NCCCN=C2C=C1 , report TGI.
*A* > 100 µM

*Q* For the compound S=c1cc(S)sc2c1c(=S)sc1nc3ccccn3c(=S)c12 , report TGI.
*A* > 100 µM

*Q* For the compound N#Cc1c(N)nc(N2CCOCC2)c(C#N)c1-c1cccnc1 , report TGI.
*A* > 100 µM

*Q* For the compound O=c1[nH]c(Nc2cc(Cl)cc(Cl)c2)nc2nc[nH]c12 , report TGI.
*A* > 75 µM

*Q* For the compound COc1ccc(/C(C#N)=C/c2ccc(OC)c(OC)c2)cc1 , report TGI.
*A* > 100 µM

*Q* For the compound CS(=O)(=O)N(N(CCCl)S(=O)(=O)c1ccccc1)S(C)(=O)=O , report TGI.
*A* > 100 µM

---

Below, each entry is listed with its recorded TGI.
# System: NCI-H23 lung
# protocol-description: NCI tumour cell line growth inhibition, 48 h

Record excerpt, results attached:
compound	TGI
O=C1/C(=C/c2ccc(Cl)cc2)N=C(c2ccccc2)N1CCc1cccs1	> 100 µM
CC(=O)O[C@@H]1C2=C(C)C=C(O2)[C@H]2O[C@]2(C)C[C@H]2C=C(C(=O)O2)[C@H](OC(C)=O)CC1[C@@]1(C)CO1 (some centres not stated)	> 100 µM
N#CCCC1(CCC#N)CCCCCCCCC(CCC#N)(CCC#N)C(=O)C1=O	> 100 µM
CCOC(=O)C(O)(NC(=O)c1ccccc1F)C(F)(F)F (configuration not stated)	> 100 µM
CS(=O)(=O)N(N(CCCl)S(=O)(=O)c1ccccc1)S(C)(=O)=O	> 100 µM

*Q* For the compound CC(=O)c1ccc(NC(=O)C(=O)Nn2c(=S)[nH]c3ccccc3c2=O)cc1 , report TGI.
*A* > 100 µM

*Q* For the compound CCc1cccc(C(C)C)c1N1C(=O)C(=O)C(c2nc3ccccc3s2)C(=O)C1=O , report TGI.
*A* > 50 µM

*Q* For the compound O=CC(O)C(O)C(O)C(O)COP(=O)(O)Cc1ccccc1 (configuration not stated) , report TGI.
*A* > 10 µM

*Q* For the compound COc1cc(OC)c(C2CC=Cc3c(OC)cc(OC)c(OC)c32)cc1OC (configuration not stated) , report TGI.
*A* > 100 µM

*Q* For the compound N#C/C(=C\NC(=S)c1ccncc1)c1nc2ccccc2s1 , report TGI.
*A* > 100 µM

*Q* For the compound COc1cc2c3c(n(CCCI)c(=O)c2cc1OC)-c1cc2c(cc1C3=O)OCO2 , report TGI.
*A* > 100 µM

*Q* For the compound C[C@]1(CO)CCC[C@@]2(C)C1CC[C@H]1CC3C[C@]12CC[C@]3(C)O (some centres not stated) , report TGI.
*A* > 100 µM
